These entries and their values trace back to ChEMBL document CHEMBL1201862.

Tested on: KM12
Experiment: NCI tumour cell line growth inhibition, 48 h
Active and inactive are the calls of the source. Cut-off read from the data, not from the text of the source: active = GI50 up to about 1.1 µM and inactive = higher.

{"columns": ["compound", "GI50"],
 "data": [
  ["[N-]=[N+]=NC1=C(N=[N+]=[N-])c2cccc3cccc(c23)C1=O", "76.2 µM (inactive)"],
  ["COc1ccc(/C=C2\\C[C@H]3[C@@H]4CC=C5C[C@@H](O)CC[C@]5(C)[C@H]4CC[C@]3(C)\\C2=N\\O)cc1", "16.8 µM (inactive)"],
  ["NC(=O)C1(c2ccccc2)Nc2ccccc2S1 (stereo unspecified)", "> 100 µM (inactive)"],
  ["Cc1ccc2oc(=O)c(C(=O)Nc3nc(C45CC6CC(CC(C6)C4)C5)cs3)cc2c1", "> 100 µM (inactive)"],
  ["CC(=O)OCC1OC(N2C(c3ccccc3)=CC(c3cccs3)C(C#N)=C2S)C(OC(C)=O)C(OC(C)=O)C1OC(C)=O (stereo unspecified)", "> 100 µM (inactive)"],
  ["CCCCCCCCCCCCc1ccc(S(=O)(=O)O)cc1", "> 100 µM (inactive)"],
  ["COC(CNC(=O)C(C)NC(=O)/C=C/c1ccccc1)OC (stereo unspecified)", "> 100 µM (inactive)"],
  ["O=C1N(c2ccccc2)C(=O)C2(SC=NN2Cc2ccccc2)N1c1ccccc1 (stereo unspecified)", "> 100 µM (inactive)"],
  ["CC(CCCCNC(=O)OC(C)(C)C)NC(=O)NC(C)CCCCNC(=O)OC(C)(C)C (stereo unspecified)", "> 100 µM (inactive)"],
  ["CC(C)N(C(=O)C12C3C4C1C1C2C3C41C(=O)C(C)(C)C)C(C)C (stereo unspecified)", "> 100 µM (inactive)"],
  ["O=C(O)CC1OCC=C2CN3CCC45C6=CC(=O)C(O)=C([N+](=O)[O-])C6=NC4C1C2CC35 (stereo unspecified)", "> 100 µM (inactive)"],
  ["CCCCCc1cccc(=O)o1", "> 100 µM (inactive)"],
  ["Cc1nnc2sc(NN)nn12", "> 100 µM (inactive)"],
  ["c1ccc(-c2cc(-c3cc(-c4ccccc4)[nH]n3)[nH]n2)cc1", "> 100 µM (inactive)"],
  ["CN1CCN(c2ccc3nc(-c4cc(O)c5c(nc(CO)n5C)c4O)[nH]c3n2)CC1", "54.2 µM (inactive)"],
  ["NNC(=O)C(O)C(O)C(O)CO (stereo unspecified)", "> 100 µM (inactive)"]
]}

###

Test system: OVCAR-8
Test: NCI tumour cell line growth inhibition, 48 h
Active and inactive are the calls of the source. No stated cut-off is given here; in the data, active = GI50 up to about 1.1 µM and inactive = higher.

{"columns": ["molecule", "studyTarget", "GI50"],
 "data": [
  ["COCOc1ccc(C(=O)C(C)c2ccc(OCOC)cc2OCOC)c(O)c1 (centres undefined)", "OVCAR-8", "> 100 µM (inactive)"],
  ["c1cnn(C23C4C5C6C4C2C6C53)c1 (centres undefined)", "OVCAR-8", "> 100 µM (inactive)"],
  ["Nc1ccc(-c2nc3ccccc3s2)cc1F", "OVCAR-8", "> 100 µM (inactive)"],
  ["O=C(O)CCNS(=O)(=O)c1ccc([N+](=O)[O-])cc1", "OVCAR-8", "> 100 µM (inactive)"],
  ["O=C(/C=C/c1ccc(O)cc1)c1cc(O)cc(O)c1", "OVCAR-8", "13.4 µM (inactive)"],
  ["O=c1[nH]c(=O)n(COCc2ccccc2)c2ccc(Br)cc12", "OVCAR-8", "90.8 µM (inactive)"],
  ["CCOc1cc[n+]([C-](C#N)C#N)cc1", "OVCAR-8", "> 100 µM (inactive)"],
  ["N#Cc1cccc2c1Nc1ccccc1S2", "OVCAR-8", "79.3 µM (inactive)"],
  ["NC(=S)N/N=C1\\CCc2ccccc2C1", "OVCAR-8", "> 100 µM (inactive)"],
  ["O=C(N/N=C/C=C/c1ccc([N+](=O)[O-])o1)c1ccc(Br)s1", "OVCAR-8", "16.9 µM (inactive)"],
  ["COc1ccc2nc3cc([N+](=O)[O-])ccc3c(NNc3ccc([N+](=O)[O-])cc3)c2c1", "OVCAR-8", "> 58.1 µM (inactive)"],
  ["O=C(CSCC(=O)N/N=C/c1ccc2c(c1)OCO2)N/N=C/c1ccc2c(c1)OCO2", "OVCAR-8", "49 µM (inactive)"],
  ["N#CC1=C(S)N(C2OC(CO)C(O)C(O)C2O)C(c2ccccc2)=CC1c1cccs1 (centres undefined)", "OVCAR-8", "22.3 µM (inactive)"],
  ["O=C(NN=C1CCCCC1)Nc1ccccc1Cl", "OVCAR-8", "62.5 µM (inactive)"],
  ["O=c1[nH][nH]c(=O)n1Cc1cccc(Cn2c(=O)[nH][nH]c2=O)c1", "OVCAR-8", "> 100 µM (inactive)"],
  ["COC(=O)C1CCC(=O)N1/C(C)=N/NC(=O)Nc1ccc(Cl)c(Cl)c1 (centres undefined)", "OVCAR-8", "> 100 µM (inactive)"],
  ["CCCc1cn2c(/C=N/NC(=N)N)c(-c3cc([N+](=O)[O-])c(Cl)cc3Cl)nc2s1", "OVCAR-8", "1.54 µM (inactive)"],
  ["Clc1nc(Nc2nc3ccccc3[nH]2)nc(Cl)c1Cc1ccccc1", "OVCAR-8", "> 100 µM (inactive)"],
  ["Cc1ccc(SC2C(=O)C3CC(OCc4ccccc4)C2(C)C3(C)C)cc1 (centres undefined)", "OVCAR-8", "> 100 µM (inactive)"],
  ["C=C/C(C)=C/[C@H](C)C(=O)C[C@H](O)CC1CC(=O)NC(=O)C1", "OVCAR-8", "24.2 µM (inactive)"],
  ["CCOC(=O)N/N=C(\\Cc1ccc([N+](=O)[O-])cc1)OCC", "OVCAR-8", "> 100 µM (inactive)"],
  ["O=C(NCc1ccc(Cl)cc1)c1cc2sccc2nc1C(F)(F)F", "OVCAR-8", "26.4 µM (inactive)"],
  ["Cc1nc(O)c(O)c(CN2CCCCC2)n1", "OVCAR-8", "> 100 µM (inactive)"],
  ["O=C(CN1C(=O)c2ccccc2C1=O)NC1(C(=O)O)CCCC1", "OVCAR-8", "> 100 µM (inactive)"],
  ["CN(Cc1cnc2nc(N)nc(N)c2n1)c1ccc(C(=O)NCCCC(=O)O)cc1", "OVCAR-8", "7.55 µM (inactive)"],
  ["CC(NC(=O)c1ccc(Cl)c(Cl)c1)c1ccc(-c2ccccc2)cc1 (centres undefined)", "OVCAR-8", "26.3 µM (inactive)"],
  ["N#Cc1nc(Nc2ccc([N+](=O)[O-])cc2)sc1N", "OVCAR-8", "19.4 µM (inactive)"],
  ["CC1=NC(=Cc2cc(Br)cc(Br)c2)C(=O)N1n1c(-c2ccccc2)nc2ccccc2c1=O", "OVCAR-8", "> 100 µM (inactive)"],
  ["O=C(N[C@H]1CCC[C@H]1C(=O)Nc1ccc(C(F)(F)F)cc1)OCc1ccccc1", "OVCAR-8", "> 100 µM (inactive)"],
  ["CCOC(=O)C(C)(c1c(C)[nH]c2ccccc12)c1c(C)[nH]c2ccccc12", "OVCAR-8", "26.8 µM (inactive)"],
  ["COc1cc([C@@H]2c3cc4c(cc3[C@@H](NCCNCCO)[C@H]3COC(=O)[C@H]23)OCO4)cc(OC)c1O", "OVCAR-8", "1.81 µM (inactive)"],
  ["COc1ccc(/C=C(\\NC(=O)c2ccccc2)c2nc3ccccc3[nH]2)cc1", "OVCAR-8", "39.3 µM (inactive)"],
  ["Cc1cccc(NS(=O)(=O)c2ccc(/N=N/c3c(O)c(C(=O)O)cc4ccccc34)cc2)n1", "OVCAR-8", "> 100 µM (inactive)"],
  ["N/C(=N\\N=C=C1C(=O)Nc2ccc(F)cc21)NO", "OVCAR-8", "> 100 µM (inactive)"],
  ["OC12CC3c4ccccc4NC3C3Oc4cccc5c4C31CCN(CC1CC1)C2C5 (centres undefined)", "OVCAR-8", "16.4 µM (inactive)"],
  ["CC(CCCCNC(=O)OC(C)(C)C)NC(=O)NC(C)CCCCNC(=O)OC(C)(C)C (centres undefined)", "OVCAR-8", "> 100 µM (inactive)"],
  ["CC#C[I+]c1ccccc1", "OVCAR-8", "15.1 µM (inactive)"],
  ["CN(C(=O)c1ccc(OCCCC(=O)O)c(Cl)c1Cl)C1CCCC1", "OVCAR-8", "> 100 µM (inactive)"],
  ["CC(O)(C(=O)N(O)c1ccc(Cl)cc1)c1ccc(Cl)cc1 (centres undefined)", "OVCAR-8", "27.2 µM (inactive)"]
]}

###

System: NCI-H522
Assay: NCI tumour cell line growth inhibition, 48 h
The source made the active and inactive calls. No stated cut-off is given here; in the data, active = GI50 up to about 1.1 µM and inactive = higher.
measuredProperty: GI50

{"columns": ["molecule", "studyTarget", "measuredProperty", "val"],
 "data": [
  ["c1ccc2c(c1)cc1c3[nH]c4ccccc4c3ccn21", "NCI-H522", "GI50", "> 10 µM (inactive)"],
  ["CN(C)CC1CN(C(=O)Nc2ccccc2)C(=N)O1 (configuration not stated)", "NCI-H522", "GI50", "> 100 µM (inactive)"],
  ["Cc1ccc2c(O)cc(-c3cc(C)sc3C)nc2n1", "NCI-H522", "GI50", "2.07 µM (inactive)"],
  ["CC(=O)c1cccc(NCn2nnc3ccccc32)c1", "NCI-H522", "GI50", "> 100 µM (inactive)"],
  ["Cc1nn(C)c2nc3ccc(Cl)cc3c(-c3ccccc3)c12", "NCI-H522", "GI50", "> 100 µM (inactive)"],
  ["CC1=C/C(=N\\N(C)C)C(C(O)(C(F)(F)F)C(F)(F)F)C(C)(C)C1 (configuration not stated)", "NCI-H522", "GI50", "> 100 µM (inactive)"],
  ["OC1c2ccccc2CC12Cc1ccccc1C2 (configuration not stated)", "NCI-H522", "GI50", "62.5 µM (inactive)"],
  ["Oc1c2cc(Br)cc1CCc1cc(Br)cc(c1O)CC2", "NCI-H522", "GI50", "14.4 µM (inactive)"],
  ["Cc1nc2c(cc1OCc1ccccc1)C(=O)C1=C(C2=O)C2OC(=O)CC2OC1(C)C (configuration not stated)", "NCI-H522", "GI50", "0.149 µM (active)"],
  ["Brc1ccccc2cc(-c3ccccc3)nc1-2", "NCI-H522", "GI50", "2.86 µM (inactive)"],
  ["C=CCC1([C@H](C)[C@@H](OC(C)=O)c2cc(OC)c(OC)c(OC)c2)C[C@@H](OC)CCC1=O (some centres not stated)", "NCI-H522", "GI50", "11.1 µM (inactive)"],
  ["COc1cc(/C=C2\\C(=O)N(Cc3ccccc3)C(c3ccccc3)S2(=O)=O)cc(OC)c1OC (configuration not stated)", "NCI-H522", "GI50", "14.2 µM (inactive)"],
  ["Nc1nc(NCC2(CO)CC2)cc(=O)[nH]1", "NCI-H522", "GI50", "> 100 µM (inactive)"],
  ["O=NN(CCCl)C(=O)N[C@H]1CC[C@@H](C(=O)O)CC1", "NCI-H522", "GI50", "23 µM (inactive)"],
  ["COc1cc2cc(C(=O)N3CC(CCl)c4c3cc(N(C)C)c3ccccc43)[nH]c2c(OC)c1OC (configuration not stated)", "NCI-H522", "GI50", "< 0.01 µM (active)"],
  ["CCCNC(=O)CCC(C)[C@H]1CCC2C3C(C[C@H](OC(C)=O)[C@@]21C)[C@@]1(C)CCC2(C[C@H]1C[C@H]3OC(C)=O)OOC1(CCC(C)CC1)OO2 (some centres not stated)", "NCI-H522", "GI50", "13 µM (inactive)"],
  ["O=C1c2ccccc2/C=C\\C(c2ccccc2)=N/N1c1ccccc1Cl", "NCI-H522", "GI50", "12.2 µM (inactive)"],
  ["CC1(C)O[C@@H](CCl)C[C@@H](C#N)O1", "NCI-H522", "GI50", "> 100 µM (inactive)"],
  ["CCCc1cn2c(/C=N/NC(=N)N)c(-c3cc([N+](=O)[O-])c(Cl)cc3Cl)nc2s1", "NCI-H522", "GI50", "2.18 µM (inactive)"],
  ["CSc1c2c(C)n[nH]c2nn1-c1ccccc1", "NCI-H522", "GI50", "5.01 µM (inactive)"],
  ["O=C1c2c(Cl)c(Cl)c(Cl)c(Cl)c2C(=O)N1CCN(c1c(Cl)ssc1=O)c1c(Cl)ssc1=O", "NCI-H522", "GI50", "23.2 µM (inactive)"],
  ["COc1ccc(C(=O)/C=C/c2ccc(OCC#N)cc2)cc1", "NCI-H522", "GI50", "18.1 µM (inactive)"],
  ["Nc1ccc(C(=O)NN2C(=O)C(Cl)C2c2ccccc2Cl)cc1 (configuration not stated)", "NCI-H522", "GI50", "1.71 µM (inactive)"],
  ["C[As+](C)(c1ccc(Br)c([N+](=O)[O-])c1)c1ccc(Br)c([N+](=O)[O-])c1", "NCI-H522", "GI50", "87.7 µM (inactive)"],
  ["C[Si](C)(C)c1ccc(-c2c3ccc(-c4cc(Br)cc(Br)c4)nc3nc3nc(-c4cc(Br)cc(Br)c4)ccc23)cc1", "NCI-H522", "GI50", "> 100 µM (inactive)"],
  ["CCO/C=C\\C12CCCC1NC(c1ccccc1)(c1ccccc1)O2 (configuration not stated)", "NCI-H522", "GI50", "33.7 µM (inactive)"],
  ["COc1cc(NC(C)c2ccc3c(c2)OCCO3)cc(OC)c1OC (configuration not stated)", "NCI-H522", "GI50", "17.5 µM (inactive)"],
  ["CO[C@H]1C[C@](C)(O)Cc2cc3c(c(O)c21)C(=O)c1c(O)cc2c(c1C3=O)O[C@@H]1O[C@@]2(C)[C@H](O)[C@@H](N(C)C)[C@@H]1O", "NCI-H522", "GI50", "1.04 µM (active)"],
  ["CC1=CCCC(C)(O)C2CC(CCC3(C)OC3CC1)C(C)C(=O)O2 (configuration not stated)", "NCI-H522", "GI50", "> 100 µM (inactive)"],
  ["CC(C)(C)C1=CC(=N/N=c2\\scc(-c3ccccc3)n2-c2ccccc2)C=C(C(C)(C)C)C1=O", "NCI-H522", "GI50", "> 100 µM (inactive)"],
  ["COC(=O)c1cc(Br)c(Br)n1C", "NCI-H522", "GI50", "39.4 µM (inactive)"],
  ["CC(C)=CCc1cc(/C=C/C(=O)O)cc(CC=C(C)C)c1O [ARTEPILLIN]", "NCI-H522", "GI50", "31.3 µM (inactive)"]
]}
